- assayedTarget: FP receptors (Swiss 3T3 cells expressing FP receptors) (Mus musculus, UniProt P43117)
- Construct: endogenous in cells; host or cells: Swiss 3T3 cells
- Sequence (P43117 whole entry): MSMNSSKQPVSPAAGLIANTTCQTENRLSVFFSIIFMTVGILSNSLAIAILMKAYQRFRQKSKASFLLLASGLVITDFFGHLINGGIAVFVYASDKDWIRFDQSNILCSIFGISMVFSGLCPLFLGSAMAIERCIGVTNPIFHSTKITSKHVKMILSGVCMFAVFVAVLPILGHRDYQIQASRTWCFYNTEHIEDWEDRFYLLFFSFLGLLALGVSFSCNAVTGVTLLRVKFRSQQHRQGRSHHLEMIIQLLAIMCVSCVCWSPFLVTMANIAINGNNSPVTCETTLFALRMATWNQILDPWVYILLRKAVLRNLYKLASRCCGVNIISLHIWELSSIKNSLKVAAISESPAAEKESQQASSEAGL
- assayExplanation: FP receptor-mediated phosphoinositide turnover assay
- Assay type: cell-based
- protocolConditions: Table 1; [3H]-IPs in Swiss 3T3 cells; read-out: FP functional EC50
measuredQuantity: EC50 (µM)

Some entries whose results are on file:
1) O=C(O)CCC/C=C\C[C@H]1[C@@H](O)CO[C@@H]1/C=C/[C@H](O)COc1ccc(F)cc1 ... 1.24
2) O=C(O)CC/C=C\CC[C@H]1[C@@H](O)CO[C@@H]1/C=C/[C@H](O)COc1ccccc1 ... 0.252
3) O=C(O)CCC/C=C\C[C@H]1CC[C@@H](O)[C@@H]1CC[C@@H](O)C1Cc2ccccc2C1 ... 0.108
4) O=C(O)CC/C=C\CC[C@H]1[C@@H](O)CO[C@@H]1/C=C/[C@@H](O)COc1cccc(C(F)(F)F)c1 ... 0.096
5) O=C(O)CCC/C=C\C[C@@H]1[C@@H](CC[C@@H](F)COc2cccc(Cl)c2)[C@H](O)C[C@@H]1O ... 0.009

1 = O=C(O)CCC/C=C\C[C@@H]1[C@@H](/C=C/[C@H](F)COc2cccc(Cl)c2)[C@H](O)C[C@@H]1O
2 = O=C(O)CC/C=C\CC[C@H]1[C@@H](O)CO[C@@H]1/C=C/[C@H](O)COc1cccc(Cl)c1
3 = O=C(O)CCC/C=C\C[C@H]1[C@@H](O)CO[C@@H]1/C=C/[C@H](O)COc1ccccc1
4 = O=C(O)CCC/C=C\C[C@@H]1[C@@H](CC[C@@H](F)COc2ccccc2)[C@H](O)C[C@@H]1O
5 = O=C(O)CCC/C=C\C[C@H]1CC[C@@H](O)[C@@H]1/C=C/[C@@H](O)COc1cccc(Cl)c1
Ranking field: EC50; order: falling. Your task in answering is to list the labels in the requested order.
2, 1, 3, 4, 5
(2: 0.249 µM, 1: 0.081 µM, 3: 0.0486 µM, 4: 0.0095 µM, 5: 0.0026 µM)

I = O=C(O)CCC/C=C\C[C@H]1[C@@H](O)CO[C@@H]1/C=C/[C@H](O)COc1cccc(Cl)c1
II = O=C(O)CCC/C=C\C[C@@H]1[C@@H](/C=C/[C@H](F)COc2ccccc2)[C@H](O)C[C@@H]1O
# return whichever of I and II has the smaller EC50 // caller expects the label of the chosen entry
II
(II: 0.096 µM, I: 0.194 µM)
